Attribute: IC50
tested on: A549; assay: Antiproliferative activity against human A549 cells assessed as reduction in cell viability; format: functional, cell-based

structure: Cc1ccc(C(=O)Nc2ncc(Cc3cccc(Cl)c3)s2)cc1
assay-endpoint: IC50
val: > 50 µM

Enquiry: Entry CCCCCCC(=O)Nc1ncc(Cc2ccc(OC)cc2)s1 needs its IC50 filled in; supply it.
Return: > 50 µM
